Origin of values: patent US20230295197A1

Entries and their measured DC50 follow.
- Tested on: STAT5
- Experiment Summary: Immunoblotting (Western blot) analysis of STAT5 degradation efficiency of degraders in treated cells
- Assay type: cell-based
- Experimental Setup: KU-812 cells, read-out: DC50 S5 KU-812
- Procedure: Evaluation of the degradation efficiency of degraders may be accomplished by immunoblotting analysis. The representative general protocol is the following: Cells are maintained in the appropriate culture medium with 10% FBS at 37° C. and an atmosphere of 5% CO2. Cell lines are used within three months of thawing fresh vials. […] The intensity of Western blot signaling is quantitated using the Odyssey software. […]

Compound	Study System	DC50
CC(C)(C)[C@H](NC(=O)c1cc2cc(C(F)(F)P(=O)(O)O)ccc2s1)C(=O)N1CCC[C@H]1C(=O)N(CCC(=O)N1CC(CCC#Cc2cccc3c2CN(C2CCC(=O)NC2=O)C3=O)C1)c1ccc(Br)cc1 (stereo partly shown) [Compound 666]	STAT5	1000 to 10000 nM
CN(CCCC#Cc1cccc2c1CN(C1CCC(=O)NC1=O)C2=O)C(=O)CCN(C(=O)[C@@H]1CCCN1C(=O)[C@@H](NC(=O)c1cc2cc(C(F)(F)P(=O)(O)O)ccc2s1)C(C)(C)C)c1ccc2scnc2c1 (stereo partly shown) [Compound 684]	STAT5	100 to 1000 nM

Query (compound): CC(C)(C)[C@H](NC(=O)c1cc2cc(C(F)(F)P(=O)(O)O)ccc2s1)C(=O)N1CCC[C@H]1C(=O)N(CCC(=O)NCCCC#Cc1cccc2c1CN(C1CCC(=O)NC1=O)C2=O)c1ccccc1 (stereo partly shown) [Compound 633] ; field requested: DC50
> 10000 nM

Repeat with CC(C)(C)[C@H](NC(=O)c1cc2cc(C(F)(F)P(=O)(O)O)ccc2s1)C(=O)N1CCC[C@H]1C(=O)N(CCC(=O)NCCCC#Cc1cccc2c1CN(C1CCC(=O)NC1=O)C2=O)c1ccc2scnc2c1 (stereo partly shown) [Compound 668]
100 to 1000 nM
